experiment: In vivo systemic drug exposure after oral and intravenous dosing; conditions: female, mouse; C57BL/6 mice, intravenous 1 mg/kg dose, plasma

{"columns": ["COMPOUND", "AUC(0-inf)"],
 "data": [
  ["CCCC1c2ccc(OCCN3CCC(C(=O)Nc4ncc(SCc5ncc(C(C)(C)C)o5)s4)CC3)cc2CCN1C(=O)/C(C#N)=C/c1cccc(Br)n1 (stereo not shown)", "841 ng·h/mL"]
]}

* * *

experiment: In vivo drug exposure in the brain after systemic dosing; settings: female, mouse, plasma; C57BL/6 mice, intravenous 5 mg/kg dose
RECORDED ENDPOINT: AUC(0-inf) (ng·h/mL)

{"columns": ["COMPOUND", "ASSAY VALUE"],
 "data": [
  ["CCCC(c1ccc(CCCN2CCC(CNc3ncc(SCc4ncc(C(C)(C)C)o4)s3)CC2)cc1)N(C)C(=O)/C(C#N)=C/c1nc2ccccc2s1 (stereo not shown) [Example A39]", 1340]
]}
